# Test system: OVCAR-8
# assay.notes: Growth inhibition of human OVCAR8 cells assessed as cell growth at 10 uM incubated for 48 hrs by sulforhodamine B assay relative to control
# Type: functional
# stated.conditions: OVCAR-8, 48 h, read-out: Activity
growth at 10 µM: recorded values
property: growth at 10 µM

In [3]: df
Out[3]:
                            compound_smiles         property  readout_value
0  COc1cc(Cl)cc(-c2nn(-c3cccc(NC(=O)Nc4cccc(C(F)(F)F)c4)c3)cc2-c2ccncc2)c1  growth at 10 µM         -12.3%
1  O=C(Nc1cccc(-n2cc(-c3ccncc3)c(-c3cc(O)cc(Cl)c3)n2)c1)c1ccc(N2CCOCC2)c(C(F)(F)F)c1  growth at 10 µM          22.7%
2  COc1cc(Cl)cc(-c2nn(-c3cccc(NC(=O)c4cc(C(F)(F)F)cc(C(F)(F)F)c4)c3)cc2-c2ccncc2)c1  growth at 10 µM          55.4%
3  O=C(Nc1cccc(-n2cc(-c3ccncc3)c(-c3cc(O)cc(Cl)c3)n2)c1)Nc1ccc(Cl)c(C(F)(F)F)c1  growth at 10 µM          3.69%
4  COc1cc(Cl)cc(-c2nn(-c3cccc(NC(=O)c4cccc(C(F)(F)F)c4)c3)cc2-c2ccncc2)c1  growth at 10 µM            42%
5  COc1cc(Cl)cc(-c2nn(-c3cccc(NC(=O)Nc4cc(C(F)(F)F)cc(C(F)(F)F)c4)c3)cc2-c2ccncc2)c1  growth at 10 µM         -2.46%

###

TGI: recorded values
# System: HT-29
# assay.notes: Growth inhibition of human HT-29 cells incubated for 48 hrs by sulforhodamine B assay
# Assay type: functional, cell-based
# stated.conditions: HT-29, 48 h, read-out: pTGI (converted)
property: TGI (µM)

                            compound_smiles  property  unit_label  readout_value
0  COc1cc(Cl)cc(-c2nn(-c3cccc(NC(=O)Nc4cc(C(F)(F)F)cc(C(F)(F)F)c4)c3)cc2-c2ccncc2)c1       TGI          µM           2.82
1  O=C(Nc1cccc(-n2cc(-c3ccncc3)c(-c3cc(O)cc(Cl)c3)n2)c1)c1ccc(N2CCOCC2)c(C(F)(F)F)c1       TGI          µM           11.2
2  COc1cc(Cl)cc(-c2nn(-c3cccc(NC(=O)Nc4ccc(Cl)c(C(F)(F)F)c4)c3)cc2-c2ccncc2)c1       TGI          µM           4.37
3  O=C(Nc1cccc(-n2cc(-c3ccncc3)c(-c3cc(O)cc(Cl)c3)n2)c1)Nc1ccc(Cl)c(C(F)(F)F)c1       TGI          µM           4.57
4  COc1cc(Cl)cc(-c2nn(-c3cccc(NC(=O)Nc4cccc(C(F)(F)F)c4)c3)cc2-c2ccncc2)c1       TGI          µM           6.31
5  O=C(Nc1cccc(-n2cc(-c3ccncc3)c(-c3cc(O)cc(Cl)c3)n2)c1)c1cc(C(F)(F)F)cc(C(F)(F)F)c1       TGI          µM             38
6  COc1cc(Cl)cc(-c2nn(-c3cccc(NC(=O)Nc4ccc(Cl)c(Cl)c4)c3)cc2-c2ccncc2)c1       TGI          µM           9.12
